Attribution: patent US20100086555A1

Each item that follows carries a reported Neutralization of infectious viruses (IC50).
- SYSTEM: H1 HA A/SI/3/06 (on infectious virus) (influenza A virus A/SI/3/06 (H1N1))
- ASSAY_SUMMARY: cell-based or functional assay
The response must be a number in µg/mL with no trailing unit.

The cases that follow already have their Neutralization of infectious viruses (IC50) on record.
BINDER	REPORTED_MEASUREMENT
FC6 (antibody, V domains shown) VH: QGQLVQSGAEVKKSGSSVKVSCKTSGGTFNSHAISWVRQAPGQGLEWIGGIIPMFGTTNYAQKLKGRIAITADQLPTTAYLELSSLRSEDTAVYYCARGQRYYYDRDGMDVWGQGTMVTVSS VL: EIVMTQTPLSLSVTPGQPASISCRSSQSLLHSDGKTYLYWYLQKPGQPPQLLISEVFNRFSGVPDRFSGSGSGTDFTLKISRVEAEDVGVYYCMQSLQLPLTFGGGTKVEIK	18
FE43 (antibody, V domains shown) VH: QVHLVQSGAEVKKPGSSVRLSCSASGGPFSGFAISWLRQAPGQGLEWLGGISAVFGTATYAQKFQGRVTITADQFTSTSHMDLSRLTYDDTAVYYCARSGGYLPQNNWIDPWGQGTLVIVSS VL: DIVMTQTPLSLSVTPGQPASISCKSSQSLLHSDGKTYLYWYLQKPGQSPQLLIYEVSNRFSGVPDRFSGSGSGTDFTLKISRVEAEDVGVYYCMQNILLPLTFGGGTKVEIK	9

Problem: Entry under review: FE53 (antibody, V domains shown) VH: QVQLVQSGAEVKKPGSSVKVSCKASGVTSSNYPITWVRQAPGQGLEWMGGVLPLFGVTNYAQKFQGRVTISADKSTNTAYMELSSLRSEDTAVYYCARGKRPGYCSGGVCSSDYWGQGTLVTVSS VL: DIQMTQSPSSLSASVGDRVSITCQASQDISRYLNWYQQKPGEAPKLLIYDASNLETGVPSRFSGSGSGTDFTFTISSLQPEDIATYFCQQYGYLPLTFGPGTKVDSK . Reported Neutralization of infectious viruses (IC50)?
Result: 6

Problem: Also FB139 (antibody, V domains shown) VH: QVQLVQSGAEVKKAGSSVKVSCQSSGVTFSMYAVSWVRQAPGQGLEWMGGIIPLFGTTTYAQKFEGRLTITADTSTNMAYLELRSLRSEDTAVYFCARAGTTVTRFNWFDPWGQGTLVTVSS VL: EVVLTQSPGTLSLSPGQRATLSCRASQSVSSSYLAWYQQKPGQAPRLLIYDASNRATGIPDRFSGSGSGTDFTLTISRLEPEDFAVYYCQQYGSSPYTFGQGTKLEIK , if possible.
Result: 4
